Data provenance: patent US10556902B2

Target: His-Tagged hOGA (human O-GlcNAcase) (Homo sapiens (Human))
Sequence (O60502 whole entry): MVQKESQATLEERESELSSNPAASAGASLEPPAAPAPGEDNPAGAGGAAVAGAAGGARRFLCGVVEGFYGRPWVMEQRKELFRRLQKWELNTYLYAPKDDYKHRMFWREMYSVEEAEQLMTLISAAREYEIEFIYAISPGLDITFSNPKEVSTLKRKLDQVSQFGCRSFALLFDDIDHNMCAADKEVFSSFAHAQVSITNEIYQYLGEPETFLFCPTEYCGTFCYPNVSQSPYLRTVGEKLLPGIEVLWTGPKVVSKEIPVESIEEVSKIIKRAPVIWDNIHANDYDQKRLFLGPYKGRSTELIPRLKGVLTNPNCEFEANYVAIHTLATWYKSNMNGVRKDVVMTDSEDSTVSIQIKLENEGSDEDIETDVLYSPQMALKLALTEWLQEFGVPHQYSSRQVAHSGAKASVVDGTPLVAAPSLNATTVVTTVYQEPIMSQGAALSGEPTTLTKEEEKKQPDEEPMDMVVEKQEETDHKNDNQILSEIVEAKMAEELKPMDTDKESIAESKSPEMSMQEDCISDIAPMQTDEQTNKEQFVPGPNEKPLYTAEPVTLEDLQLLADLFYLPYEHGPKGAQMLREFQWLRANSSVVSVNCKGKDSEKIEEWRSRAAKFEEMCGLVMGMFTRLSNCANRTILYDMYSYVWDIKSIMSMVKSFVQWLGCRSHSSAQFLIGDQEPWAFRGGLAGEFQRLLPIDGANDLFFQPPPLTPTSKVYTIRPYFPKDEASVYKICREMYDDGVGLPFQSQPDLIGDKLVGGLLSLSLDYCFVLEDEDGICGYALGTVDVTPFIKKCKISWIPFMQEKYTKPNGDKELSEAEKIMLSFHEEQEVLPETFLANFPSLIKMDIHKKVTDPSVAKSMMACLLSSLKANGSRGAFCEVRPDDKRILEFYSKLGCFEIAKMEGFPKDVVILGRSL
Experiment: Human O-GlcNAcase enzyme inhibition assay;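 note: reactions contained 20 nM His-tagged hOGA enzyme with 10 µM FL-GlcNAc substrate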
Format: biochemical
Details: OGA enzyme inhibition assay; FL-GlcNAc substrate, pH 6.5; activity classes defined in μM; read-out: OGA IC50
metric_name: IC50

Ask | Under His-Tagged hOGA (human O-GlcNAcase) (Homo sapiens (Human)): IC50 value of CNC(=O)c1nnc(N2CCN(C(C)c3ccc4nccnc4c3)CC2)s1 (racemic) ?
Reply | 0.2 to 1 µM

Ask | Under His-Tagged hOGA (human O-GlcNAcase) (Homo sapiens (Human)): IC50 value of CC(=O)NC(C)(C)c1cnc(N2CCN(C(C)c3ccc4nccnc4c3)CC2)nc1 (racemic) ?
Reply | 0.2 to 1 µM

Ask | Under His-Tagged hOGA (human O-GlcNAcase) (Homo sapiens (Human)): IC50 value of CC(c1ccc2c(c1)OCC2)N1CCN(c2ccc(C(=O)O)cn2)CC1 (racemic) ?
Reply | < 0.05 µM

Ask | Under His-Tagged hOGA (human O-GlcNAcase) (Homo sapiens (Human)): IC50 value of CC(c1ccc2c(c1)OCC2)N1CCN(c2ccc(C(F)(F)F)nn2)CC1 (racemic) ?
Reply | < 0.05 µM

Ask | Under His-Tagged hOGA (human O-GlcNAcase) (Homo sapiens (Human)): IC50 value of CC(c1ccc2c(c1)OCC2)N1CCN(c2ncc(C(=O)N(C)C)cn2)CC1 (racemic) ?
Reply | < 0.05 µM
